Hey, just so you know, these numbers are from the RepoRT retention time repository (doi:10.1016/j.chroma.2019.01.023).

test: RP, Phenomenex Kinetex C18, 150 × 2.1 mm, 1.7 µm, 30 °C, 0.3 mL/min, estimated dead time 1.1 min; A: water + 0.1% formic acid, pH 3; B: acetonitrile + 0.1% formic acid, pH 3; gradient (min/%B) 0/2 14/100 17/100 17.1/2 25/2; conditions: stereoisomer not certain
Quantity name: LC retention time (min)

- NC(Cc1cc(I)c(Oc2ccc(O)c(I)c2)c(I)c1)C(=O)O (centres undefined): 7.41
- O=C([O-])C(O)c1ccccc1 (centres undefined) [MANDELATE]: 4.45
- O=C(O)c1ccc([O-])c(O)c1 [3,4-DIHYDROXYBENZOATE]: 3.77
- NC(Cc1c[nH]c2ccc(O)cc12)C(=O)O (centres undefined) [5-HYDROXYTRYPTOPHAN]: 2.99
- O=C(O)CCCCCCC(=O)O [SUBERATE]: 5.34

a. CSCCC(O)C(=O)O (centres undefined) [2-HYDROXY-4-(METHYLTHIO)BUTANOATE]
b. CC(CCC(=O)NCC(=O)O)C1CCC2C3C(O)CC4CC(O)CCC4(C)C3CCC12C (centres undefined) [GLYCOCHENODEOXYCHOLATE]
c. NC(=O)C1CCCN1C(=O)C(Cc1cnc[nH]1)NC(=O)C1CCC(=O)N1 (centres undefined)
*Q* Place the items in sequence of falling LC retention time. Labels, ranked as asked.
*A* b, a, c

====

assay: RP, Phenomenex Kinetex C18, 150 × 2.1 mm, 1.7 µm, 30 °C, 0.3 mL/min, estimated dead time 1.1 min; A: water + 0.1% formic acid, pH 3; B: acetonitrile + 0.1% formic acid, pH 3; gradient (min/%B) 0/2 14/100 17/100 17.1/2 25/2; conditions: stereoisomer not certain
Quantity name: LC retention time (min)

A selection of reference data follows.
- NC(Cc1ccccc1)C(=O)O (stereo not given): 3.18
- O=C(O)c1cc(=O)c2ccccc2[nH]1 [KYNURENATE]: 4.34
- C[Se]CCC(N)C(=O)O (stereo not given): 1.76

1. COc1cc(C=CC(=O)O)ccc1O [FERULATE]
2. Cn1cnc2c1c(=O)[nH]c(=O)n2C
3. NC(Cc1ccc(O)cc1)C(=O)O (stereo not given)
4. CC(CCC(=O)NCC(=O)O)C1CCC2C3C(O)CC4CC(O)CCC4(C)C3CCC12C (stereo not given) [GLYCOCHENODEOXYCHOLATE]
*Q* Falling order of LC retention time, please. Please write the labels in the order that was asked for.
*A* 4, 1, 2, 3

1. O=C(O)CNC(=O)c1ccccc1 [HIPPURATE]
2. Nc1ncnc2c1ncn2C1CC(O)C(CO)O1 (stereo not given)
*Q* Lower value for measured LC retention time? Options: 1 , 2 // output: label of the selected item
*A* 2

====

assay: RP, Phenomenex Kinetex C18, 150 × 2.1 mm, 1.7 µm, 30 °C, 0.3 mL/min, estimated dead time 1.1 min; A: water + 0.1% formic acid, pH 3; B: acetonitrile + 0.1% formic acid, pH 3; gradient (min/%B) 0/2 14/100 17/100 17.1/2 25/2; conditions: stereoisomer not certain
Quantity name: LC retention time (min)

Known LC retention time results, listed for orientation:
- Cc1ncc(CO)c(C=O)c1O: 1.4
- Nc1nc2c(ncn2C2OC(CO)C(O)C2O)c(=O)[nH]1 (configuration not stated): 2.67
- O=C(O)C(O)Cc1ccc(O)cc1 (configuration not stated) [HYDROXYPHENYLLACTATE]: 3.97
- CSCCC(N)C(=O)O (configuration not stated): 1.43
- O=Cc1ccc(O)cc1 [4-HYDROXYBENZALDEHYDE]: 5.11
- O=C(O)c1ccc([O-])cc1 [4-HYDROXYBENZOATE]: 4.51
- NCCc1ccc(O)c(O)c1: 1.62
- CC1OC(n2cnc3c(N)ncnc32)C(O)C1O (configuration not stated): 3.11
- CCC(C)C(=O)C(=O)[O-] (configuration not stated) [3-METHYL-2-OXOVALERATE]: 4.14
- Cn1c(=O)c2[nH]cnc2n(C)c1=O: 3.88

A. Nc1nc2c(ncn2C2OC(COP(=O)(O)O)C(O)C2O)c(=O)[nH]1 (configuration not stated) [GUANOSINE MONOPHOSPHATE]
B. NC(Cc1cc(I)c(Oc2cc(I)c(O)c(I)c2)c(I)c1)C(=O)O (configuration not stated)
C. NC(=O)Cc1c[nH]c2ccccc12 [INDOLE-3-ACETAMIDE]
*Q* Sort the compounds on LC retention time; start with the lowest figure. In plain terms: list the labels in the order you were asked to.
*A* A, C, B
